# reported pIC50; entries follow
# System: full-length human SYK (Homo sapiens (Human), UniProt P43405)
# Measurement Protocol: Inhibition of enzymatic SYK kinase activity (LANCE Ulight TK peptide)
# Type: biochemical
# Conditions: ATP at Km (15 uM), 30 min pre-incubation
Note on units: pIC50 is unitless, being -log10 of a concentration expressed in mol/L.

These solved cases illustrate the format of a correct answer.
structure=Cc1nn(-c2ccnc(Nc3ccc4c(c3)c(C(=O)C(F)F)cn4C)n2)cc1CN1C[C@H](O)CO1 readout_kind=pIC50 value=8.03
structure=CC(=O)c1cn(C)c2ccc(Nc3nccc(-n4cc(CN5C[C@H](O)CO5)c(C)n4)n3)cc12 readout_kind=pIC50 value=7.88
structure=CCn1cc(C(=O)C2CC2)c2cc(Nc3nccc(-n4cc(CN5C[C@H](O)CO5)c(C)n4)n3)ccc21 readout_kind=pIC50 value=8.33

Consider the additional molecule presented here.
Given the molecule Cc1nn(-c2ccnc(Nc3ccc4c(c3)c(C(=O)C3CC3)cn4CC(F)(F)F)n2)cc1CN1C[C@H](O)CO1 , what is its reported pIC50? 8.53

---

# Test system: THP-1 cells
# Measurement Protocol: SYK-dependent TNF-α release assay (IgG stimulation), ELISA
# Assay type: cell-based
# Conditions: THP-1 cells on human IgG-coated plate, 18 hours; read-out: TNF-α release inhibition, IgG stimulation IC50
Readout Kind: pIC50
Note on units: pIC50 is unitless, being -log10 of a concentration expressed in mol/L.

molecule=Cc1nn(-c2ccnc(Nc3ccc4c(c3)c(C(=O)C3CC3)cn4CC(F)(F)F)n2)cc1CN1C[C@H](O)CO1 readout_kind=pIC50 value=7.18
molecule="CCn1cc(C(=O)C2CC2)c2cc(Nc3nccc(-n4cc(CN5CC(C)(O)CO5)c(C)n4)n3)ccc21 (centres unmarked)" readout_kind=pIC50 value=6.56
molecule=Cc1nn(-c2ccnc(Nc3ccc4c(c3)c(C(=O)C(F)F)cn4C)n2)cc1CN1C[C@H](O)CO1 readout_kind=pIC50 value=7.35
molecule=Cn1cc(C(=O)C2CC2)c2cc(Nc3nccc(-n4cc(CN5C[C@H](O)CO5)cn4)n3)ccc21 readout_kind=pIC50 value=7.77

Consider the additional molecule presented here.
Provide the documented pIC50 with THP-1 cells as the system for O=C(c1cn(CC(F)(F)F)c2ccc(Nc3nccc(-n4cc(CN5C[C@H](O)CO5)cn4)n3)cc12)C1CC1 7.26

---

# reported pIC50; entries follow
# System: full-length human SYK (Homo sapiens (Human))
# Measurement Protocol: Inhibition of enzymatic SYK kinase activity (LANCE Ulight TK peptide)
# Assay type: biochemical
# Conditions: ATP at Km (15 uM), 30 min pre-incubation
Note on units: pIC50 is unitless, being -log10 of a concentration expressed in mol/L.

These solved cases illustrate the format of a correct answer.
compound=Cc1nn(-c2ccnc(Nc3ccc4c(c3)c(S(C)(=O)=O)nn4C)n2)cc1CN1C[C@H](O)CO1 system="full-length human SYK (Homo sapiens (Human))" value=7.06
compound=CCn1cc(C(=O)C2CC2)c2cc(Nc3ncc(F)c(-n4cc(CN5C[C@H](O)CO5)c(C)n4)n3)ccc21 system="full-length human SYK (Homo sapiens (Human))" value=7.18
compound=CCn1cc(C(=O)C2CC2)c2cc(Nc3ncc(C)c(-n4cc(CN5C[C@H](O)CO5)c(C)n4)n3)ccc21 system="full-length human SYK (Homo sapiens (Human))" value=7.10
compound=O=C(c1cn(CCF)c2ccc(Nc3nccc(-n4cc(CN5C[C@H](O)CO5)cn4)n3)cc12)C1CC1 system="full-length human SYK (Homo sapiens (Human))" value=8.45
compound=CCn1cc(C(=O)C2CC2)c2cc(Nc3nccc(-n4cc(CN5C[C@H](O)CO5)c(C5CC5)n4)n3)ccc21 system="full-length human SYK (Homo sapiens (Human))" value=8.23

Given the compound CCn1cc(C(=O)C2CC2)c2cc(Nc3nccc(-n4cc(CN5C[C@@H](O)CO5)c(C)n4)n3)ccc21 , what is its reported pIC50? 8.20

Also need Cc1nn(-c2ccnc(Nc3ccc4c(c3)c(C(=O)C3CC3)cn4C)n2)cc1CN1CC(C)(O)CO1 (stereo not shown) , thanks. 7.38
